- ASSAYED TARGET: human CD28 (human, UniProt P10747 19-220, On cells CD28 is a disulfide linked homodimer and a glycoprotein; one copy of the chain is given.)
- Sequence (P10747 19-220 limits assumed): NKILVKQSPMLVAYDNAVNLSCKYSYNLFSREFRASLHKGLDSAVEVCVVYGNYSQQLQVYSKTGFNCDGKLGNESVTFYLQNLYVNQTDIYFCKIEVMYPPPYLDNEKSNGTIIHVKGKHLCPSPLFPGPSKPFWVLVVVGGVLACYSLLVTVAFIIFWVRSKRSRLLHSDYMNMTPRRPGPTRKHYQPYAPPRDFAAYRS
- PROTOCOL: cell-based or functional assay
MEASURED QUANTITY: Expansion Index (with anti-CD3 UCHT1)
Answer with a bare number; do not write a unit.

Answered cases to consult:
query: Return reported Expansion Index (with anti-CD3 UCHT1); argument: exemplary anti-CD28 antibody AB2 (antibody, V domains shown, Mouse hybridoma monoclonal antibody; also called antibody 2; clone 2) VH: QVQLQQPGSELMRPGASVKLSCKASGYTFTSYWMHWVKQRHGQGLEWIGNIYPGSGRTIYDEKFKSKATLTVDTSSSTAYMHLSSLTSEDSAVFYCTRSHYGSSFDAMDYWGQGTSVTVSS VL: DIQVNQSPSSLSASLGDTITITCHASQNIYVWLNWYQQKPGNIPKLLIYKASNLHTGVPSRFSGSGSGTGFTLTISSLQPEDIATYYCQQGQSYPWTFGGGTKLEIK
result: 4.56

query: Return reported Expansion Index (with anti-CD3 UCHT1); argument: exemplary anti-CD28 antibody AB6 (antibody, V domains shown, Mouse hybridoma monoclonal antibody; Conjugated to PE in the staining assays; also called antibody 6; clone 6) VH: KVQLQQSGAGLVKPGASVKLSCKTSGYTFSDYIINWVKQRSGQGLEWIGWFYPGSGSINYNEKFKDKATLTADKSSSTVYMDLSRLTSEDSAVYFCARREDRGGYDAFDYWGQGTTLTVSS VL: DIQMTQSPASLSVSVGETVTITCRASENIYSNLAWYQQKQGKSPQLLVYAATKLADGVPSRFSGSGSGTQYSLRINSLQSEDFGSYYCQHFWGTPWTFGGGTKLEIK
result: 6.04

// below: Expansion Index (with anti-CD3 UCHT1) requested for another binder
query: Return reported Expansion Index (with anti-CD3 UCHT1); argument: exemplary anti-CD28 antibody AB4 (antibody, V domains shown, Mouse hybridoma monoclonal antibody; Conjugated to PE in the staining assays; also called antibody 4; clone 4) VH: EVQLQQSGPELEKPGASVKMSCKASGYSFTDYNMNWVKQSNGKSLEWIGIIDPYYGATTYNQRFKGKATLTVDKSSSTAYMQLKSLTSEDSAVYYCARFGFYGAMDYWGQGISVTVSS VL: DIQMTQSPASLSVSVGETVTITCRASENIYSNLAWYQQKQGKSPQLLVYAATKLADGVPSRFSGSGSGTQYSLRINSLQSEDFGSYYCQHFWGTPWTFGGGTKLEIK
result: 5.07
